study_target: Epidermal growth factor receptor (Homo sapiens, UniProt P00533)
Sequence (P00533 whole entry): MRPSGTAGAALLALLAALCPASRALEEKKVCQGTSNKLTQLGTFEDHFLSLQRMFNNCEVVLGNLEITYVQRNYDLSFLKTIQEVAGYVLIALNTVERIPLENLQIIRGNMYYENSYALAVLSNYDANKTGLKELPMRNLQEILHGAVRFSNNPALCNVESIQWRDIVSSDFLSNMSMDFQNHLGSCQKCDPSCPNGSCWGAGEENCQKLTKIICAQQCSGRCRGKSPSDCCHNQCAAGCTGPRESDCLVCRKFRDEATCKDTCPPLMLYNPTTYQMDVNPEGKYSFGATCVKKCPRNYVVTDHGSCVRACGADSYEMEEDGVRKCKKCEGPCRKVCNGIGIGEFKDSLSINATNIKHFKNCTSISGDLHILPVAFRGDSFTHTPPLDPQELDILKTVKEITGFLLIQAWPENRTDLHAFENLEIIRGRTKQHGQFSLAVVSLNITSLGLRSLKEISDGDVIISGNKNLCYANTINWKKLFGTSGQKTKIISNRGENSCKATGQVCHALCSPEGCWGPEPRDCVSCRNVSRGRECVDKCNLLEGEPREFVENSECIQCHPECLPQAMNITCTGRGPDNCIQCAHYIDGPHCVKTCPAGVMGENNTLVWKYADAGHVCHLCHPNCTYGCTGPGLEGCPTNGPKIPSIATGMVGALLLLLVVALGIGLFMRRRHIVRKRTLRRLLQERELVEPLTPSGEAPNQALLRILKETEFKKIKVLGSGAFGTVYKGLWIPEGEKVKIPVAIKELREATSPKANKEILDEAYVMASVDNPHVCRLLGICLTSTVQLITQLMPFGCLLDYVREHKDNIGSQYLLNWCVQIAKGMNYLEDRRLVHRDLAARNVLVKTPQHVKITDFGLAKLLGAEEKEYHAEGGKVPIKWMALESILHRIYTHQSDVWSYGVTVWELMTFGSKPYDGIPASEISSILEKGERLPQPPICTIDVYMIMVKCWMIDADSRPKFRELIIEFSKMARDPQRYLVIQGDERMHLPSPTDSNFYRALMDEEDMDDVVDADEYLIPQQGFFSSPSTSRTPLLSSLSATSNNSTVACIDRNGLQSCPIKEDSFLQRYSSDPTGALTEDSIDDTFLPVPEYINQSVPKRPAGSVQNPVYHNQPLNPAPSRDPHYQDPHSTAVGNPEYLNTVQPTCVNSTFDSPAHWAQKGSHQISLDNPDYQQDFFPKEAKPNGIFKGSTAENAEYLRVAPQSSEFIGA
method_summary: Inhibition of EGFR (unknown origin) by Z'-LYTE assay
property_name: IC50 (nM)

{"columns": ["compound", "unit_label", "rel", "result_value"],
 "data": [
  ["CC[C@@H](Nc1ncnc2sc(Br)cc12)c1ccccc1", "nM", "=", 183],
  ["COC[C@H](Nc1ncnc2sc(Br)cc12)c1ccccc1", "nM", ">", 10000],
  ["COc1ccccc1-c1cc2c(NCc3ccncc3)ncnc2s1", "nM", "=", 108],
  ["COc1ccccc1-c1cc2c(NCc3ccccn3)ncnc2s1", "nM", "=", 183],
  ["COc1ccccc1-c1cc2c(NCc3cccnc3)ncnc2s1", "nM", "=", 275],
  ["COc1ccccc1-c1cc2c(N[C@H](CO)c3ccccc3)ncnc2s1", "nM", "=", 1],
  ["COc1ccccc1-c1cc2c(NCc3cccs3)ncnc2s1", "nM", "=", 170],
  ["COc1ccccc1-c1cc2c(NC(C)c3ccccc3)ncnc2s1 (racemic)", "nM", "=", 19],
  ["OC[C@@H](Nc1ncnc2sc(Br)cc12)c1ccccc1", "nM", "=", 36],
  ["COc1ccccc1-c1cc2c(N[C@H](C)c3cccs3)ncnc2s1", "nM", "=", 55],
  ["COc1ccccc1-c1cc2c(N[C@H](C)c3ccccc3)ncnc2s1", "nM", "=", 9],
  ["COc1ccccc1-c1cc2c(NCc3ccccc3)ncnc2s1", "nM", "=", 17],
  ["C#Cc1cccc(Nc2ncnc3sc(-c4ccccc4OC)cc23)c1", "nM", "=", 18],
  ["Fc1cccc(COc2ccc(Nc3ncnc4sc(Br)cc34)cc2Cl)c1", "nM", "=", 257],
  ["Brc1cc2c(Nc3cccc(OCc4ccccc4)c3)ncnc2s1", "nM", ">", 10000],
  ["COC[C@@H](Nc1ncnc2sc(-c3ccccc3OC)cc12)c1ccccc1", "nM", "=", 23],
  ["Brc1cc2c(NCc3cccnc3)ncnc2s1", "nM", ">", 10000],
  ["C[C@@H](Nc1ncnc2sc(Br)cc12)c1ccccc1", "nM", "=", 38],
  ["COc1ccccc1-c1cc2c(Nc3ccc(F)c(Cl)c3)ncnc2s1", "nM", "=", 5],
  ["C#Cc1cccc(Nc2ncnc3sc(Br)cc23)c1", "nM", "=", 23],
  ["Brc1cc2c(NCc3ccncc3)ncnc2s1", "nM", "=", 3880],
  ["COc1ccccc1-c1cc2c(NC(CO)c3ccccc3)ncnc2s1 (racemic)", "nM", "=", 8],
  ["OCC(Nc1ncnc2sc(Br)cc12)c1ccccc1 (racemic)", "nM", "=", 83],
  ["C[C@H](Nc1ncnc2sc(Br)cc12)c1ccccc1", "nM", ">", 10000],
  ["COC[C@@H](Nc1ncnc2sc(Br)cc12)c1ccccc1", "nM", "=", 262],
  ["C[C@@H](Nc1ncnc2sc(Br)cc12)c1cccs1", "nM", "=", 415],
  ["C[C@@H](Nc1ncnc2sc(Br)cc12)c1ccccn1", "nM", "=", 2080],
  ["COc1ccccc1-c1cc2c(N[C@@H](CO)c3ccccc3)ncnc2s1", "nM", "=", 629],
  ["Brc1cc2c(NCc3ccccn3)ncnc2s1", "nM", "=", 7900],
  ["COc1ccccc1-c1cc2c(N[C@@H](C)c3ccccc3)ncnc2s1", "nM", "=", 1860],
  ["COc1ccccc1-c1cc2c(Nc3ccccc3)ncnc2s1", "nM", "=", 173],
  ["OC[C@H](Nc1ncnc2sc(Br)cc12)c1ccccc1", "nM", ">", 10000],
  ["C[C@@H](Nc1ncnc2sc(Br)cc12)c1ccc(F)cc1", "nM", "=", 150],
  ["COc1ccccc1-c1cc2c(N[C@H](C)c3ccccn3)ncnc2s1", "nM", "=", 153],
  ["Brc1cc2c(NCc3ccccc3)ncnc2s1", "nM", "=", 241],
  ["Brc1cc2c(Nc3ccccc3)ncnc2s1", "nM", "=", 80],
  ["Fc1ccc(Nc2ncnc3sc(Br)cc23)cc1Cl", "nM", "=", 53],
  ["CC(Nc1ncnc2sc(Br)cc12)c1ccccc1 (racemic)", "nM", "=", 156],
  ["Brc1cc2c(NCc3cccs3)ncnc2s1", "nM", "=", 1370],
  ["COc1ccccc1-c1cc2c(N[C@H](C)c3ccc(F)cc3)ncnc2s1", "nM", "=", 27]
]}
